Recorded mean cell size values for a group of compounds are listed next.
Test system: Jurkat
Assay: mean cell size (FSC-A) relative to DMSO control (fraction of control); higher = larger cells
Conditions: 48 h
Structures can show the parent of a compound that is named as a salt.
Measure: mean cell size

Compound	Measure	Reported Value
CNC(=C[N+](=O)[O-])NCCSCc1ccc(CN(C)C)o1 [Ranitidine·HCl] (concentration: 25 µM)	mean cell size	1
CC(C)n1c(/C=C/[C@H](O)C[C@H](O)CC(=O)O)c(-c2ccc(F)cc2)c2ccccc21 [Fluvastatin·Na] (concentration: 25 µM)	mean cell size	0.972
CCC(=O)O[C@]1(C(=O)CCl)[C@@H](C)C[C@H]2[C@@H]3C[C@H](F)C4=CC(=O)C=C[C@]4(C)[C@@]3(F)[C@@H](O)C[C@@]21C [Halobetasol Propionate] (concentration: 25 µM)	mean cell size	0.971
NS(=O)(=O)Cc1noc2ccccc12 [Zonisamide] (concentration: 25 µM)	mean cell size	1
CN(C)CCc1c[nH]c2ccc(Cn3cncn3)cc12 [Rizatriptan Benzoate] (concentration: 25 µM)	mean cell size	1.02
CCC1(c2ccccc2)C(=O)NCNC1=O [Primidone] (concentration: 25 µM)	mean cell size	1
